Would you mind telling me the reported pIC50 of each entry?
Test system: SKMEL-19
Test: MTT cytotoxicity assay, SKMEL-19 melanoma cells
Format: cell-based, human
Conditions: Homo sapiens, SK-MEL19, 72 h, IC50 with 95% confidence interval, triplicate, 72 h incubation
Procedure: In vitro anticancer activity of compounds 2, 3 and 4a–r was evaluated against three human cancer cell lines in comparison to doxorubicin by using MTT assay. Compounds (0.312–20 μM) were tested for cytotoxic activity against three cancer cell lines: ACP-03 (gastric), SKMEL-19 (melanoma) and HCT-116 (colon). All cell lines were maintained in DMEM medium supplemented with 10% fetal bovine serum, 2 mM glutamine, 100 U/mL penicillin, and […] streptomycin at 37 °C with 5% CO2. […]
pIC50: −log10 of the molar value.

CN(C)c1ccc(/C=N/c2cc3sc(=O)oc3cc2O)cc1 [Compound 4i] : < 5.00

For each of the compounds below, state pIC50.
1. O=c1oc2cc(O)c(/N=C/c3ccc4c(c3)OCO4)cc2s1 [Compound 4r]
2. N#Cc1ccc(/C=N/c2cc3sc(=O)oc3cc2O)cc1 [Compound 4a]
3. O=c1oc2cc(O)c(/N=C/c3cc([N+](=O)[O-])ccc3O)cc2s1 [Compound 4o]

Response:
["< 5.00", "< 5.00", "> 5.30"]
